tested on: HCC1806 Ub-PCNA (USP1); test: USP1 Western Blot Protocol (HCC1806 Ub-PCNA); type: cell-based; details: HCC1806 cells, 4 hours

[
  {
    "COMPOUND": "COc1ncnc(C2CC2)c1-c1ncc2cc(C3=CCN(C)CC3)c(=O)n(Cc3ccc(-c4nc(C(F)(F)F)cn4C)cc3)c2n1 [Compound 68]",
    "IC50": "0.1 to 1 µM"
  },
  {
    "COMPOUND": "COc1ncnc(C2CC2)c1-c1ncc2cc(C(C)=O)c(=O)n(Cc3ccc(-c4nc(C(F)(F)F)cn4C)cc3)c2n1 [Compound 69]",
    "IC50": "0.01 to 0.1 µM"
  },
  {
    "COMPOUND": "COc1ncnc(C2CC2)c1-c1ncc2cc(C(C)(C)O)c(=O)n(Cc3ccc(-c4nc(C(F)(F)F)cn4C)cc3)c2n1 [Compound 70]",
    "IC50": "0.01 to 0.1 µM"
  },
  {
    "COMPOUND": "COc1ncnc(C2CC2)c1-c1ncc2cc(C)c(=O)n(Cc3ccc(-c4nc(C(F)(F)F)cn4C)cc3)c2n1 [Compound 78]",
    "IC50": "0.01 to 0.1 µM"
  }
]
